- ASSAY COMMENT: Binding affinity to Sfh-1 (unknown origin) assessed as inhibition constant
- Set-up: species or system Bacteria
QUANTITY: Ki (µM)

[
  {
    "COMPOUND": "C[C@]1(Cn2ccnn2)[C@H](C(=O)O)N2C(=O)C[C@H]2S1(=O)=O [TAZOBACTAM]",
    "QUANTITY": "Ki",
    "EXPERIMENTAL RESULT": 62.2
  }
]

---

- STUDY SYSTEM: Metallo-beta-lactamase type 2 (Bacteria, UniProt C7C422)
- Sequence (C7C422 whole entry): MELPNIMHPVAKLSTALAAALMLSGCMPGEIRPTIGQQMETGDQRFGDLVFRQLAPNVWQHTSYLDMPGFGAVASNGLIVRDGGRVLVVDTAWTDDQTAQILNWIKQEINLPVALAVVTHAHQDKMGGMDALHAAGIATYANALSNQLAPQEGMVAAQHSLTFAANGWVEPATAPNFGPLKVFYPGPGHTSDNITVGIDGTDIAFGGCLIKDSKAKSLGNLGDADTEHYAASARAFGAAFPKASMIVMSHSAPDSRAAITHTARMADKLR
- ASSAY COMMENT: Inhibition of NDM-1 (unknown origin) using nitrocefin as substrate by colorimetric assay
Binarize IC50 at 0.04 µM; below is true, at or above is false.

[
  {
    "MOLECULE": "CCN(CC)C(=S)SSC(=S)N(CC)CC",
    "CLASS": "false"
  },
  {
    "MOLECULE": "O=C(CCn1[se]c2ccccc2c1=O)Oc1ccc2ccc(=O)oc2c1",
    "CLASS": "true"
  },
  {
    "MOLECULE": "O=C(CCn1[se]c2ccccc2c1=O)ON1C(=O)CCC1=O",
    "CLASS": "false"
  },
  {
    "MOLECULE": "O=c1c2ccccc2[se]n1-c1ccccc1",
    "CLASS": "false"
  },
  {
    "MOLECULE": "CCN(CC)c1ccc2c(-c3ccccc3C(=O)OCCn3[se]c4ccccc4c3=O)c3ccc(N(CC)CC)cc3[o+]c2c1",
    "CLASS": "true"
  },
  {
    "MOLECULE": "CCN(CC)c1ccc2cc(C(=O)NCCC[Se]C#N)c(=O)oc2c1",
    "CLASS": "false"
  },
  {
    "MOLECULE": "O=C(O)C(=O)CBr [BROMOPYRUVATE]",
    "CLASS": "false"
  }
]

---

- ASSAY COMMENT: Binding affinity to BcII (unknown origin) assessed as inhibition constant
- Set-up: species or system Bacteria

[
  {
    "LINE NOTATION": "C[C@H](NC(=O)CCS)C(=O)O",
    "Ki / µM": 5.6
  }
]

---

Recorded pKi, one value per entry.
- ASSAY COMMENT: Binding affinity to IMP-1 (unknown origin) assessed as inhibition constant
- Design: species or system Bacteria
pKi: −log10 of the molar value.
QUANTITY: pKi

[
  {
    "LINE NOTATION": "CNCc1ccc([C@@H]2C[C@@H](SC3=C(C(=O)O)N4C(=O)[C@H]([C@@H](C)O)[C@H]4[C@H]3C)CN2)cc1",
    "EXPERIMENTAL RESULT": 6.74
  },
  {
    "LINE NOTATION": "C[C@H](NC(=O)CCS)C(=O)O",
    "EXPERIMENTAL RESULT": 4.17
  }
]

---

- STUDY SYSTEM: Metallo-beta-lactamase type 2 (Bacteria, UniProt C7C422)
- ASSAY COMMENT: Inhibition of NDM-1 (unknown origin)
pIC50: −log10 of the molar value.

[
  {
    "LINE NOTATION": "O=C(O)c1cccc2c1OB(O)[C@@H](NC(=O)C1CCCCC1)C2",
    "pIC50": 5.69
  }
]

---

Recorded Ki, one value per entry.
- ASSAY COMMENT: Binding affinity to L1 (unknown origin) assessed as inhibition constant
- Set-up: species or system Bacteria

[
  {
    "LINE NOTATION": "C[C@H](NC(=O)CCS)C(=O)O",
    "Ki": "6.5 µM"
  },
  {
    "LINE NOTATION": "O=C(O)[C@@H]1CS[C@H]2CS[C@H](CS)N21",
    "Ki": "12 µM"
  },
  {
    "LINE NOTATION": "CC1(C)S[C@H]2CS[C@H](CS)N2[C@@H]1C(=O)O",
    "Ki": "11 µM"
  }
]
